# test_system: Aldehyde dehydrogenase 1A1 (Homo sapiens)
# assay_explanation: qHTS Assay for Inhibitors of Aldehyde Dehydrogenase 1 (ALDH1A1)
# run_conditions: Purified ALDH1A1, NADH fluorescence, propionaldehyde substrate; series mostly up to 75.3 µM
The campaign covered roughly 220,000 compounds. About 16,000 (7.3%) were called active. Roughly 25% stayed inconclusive and do not appear here. Calls come from the whole dose curve; as a rule, active = well fitted inhibition curve with a large enough effect (not every such curve was filed as active); inconclusive = small, poorly fitted or top-dose-only effect, or another doubt; inactive = no such curve, though single readings can be large or run the other way. This excerpt belongs to a sample that is enriched for actives.
Your answer must be one of the following: YES for active, NO for inactive

Test call, this compound: CC(NC(=O)COC(=O)c1ccc2c(c1)OCO2)c1ccccc1 (centres undefined)
NO

So what was the verdict on `O=c1[nH][nH]c(=O)c2cc(N3CCCC3)ccc12` in this test?
NO

Dear all, I need the recorded test outcome for `COc1cc(/C=N/Nc2ccc(C)cc2)cc(Br)c1O` , thank you.
YES

What did the test return for CC(=O)Nc1ccccc1OC(C)C(=O)N1CCC(C)CC1 (centres undefined) ?
NO

Record request — test call for `NC(=O)C1CCN(C(=O)COc2cccc3cccnc23)CC1`
NO

----------
# test_system: Aldehyde dehydrogenase 1A1 (Homo sapiens)
# assay_explanation: qHTS Assay for Inhibitors of Aldehyde Dehydrogenase 1 (ALDH1A1)
# run_conditions: Purified ALDH1A1, NADH fluorescence, propionaldehyde substrate; series mostly up to 75.3 µM
Hit rate of the full screen: of about 220,000 compounds, about 16,000 (7.3%) were called active. Roughly 25% stayed inconclusive and do not appear here. Calls follow the shape of the dose curve; as a rule, active = well fitted inhibition curve with a large enough effect (not every such curve was filed as active); inconclusive = small, poorly fitted or top-dose-only effect, or another doubt; inactive = no such curve, though single readings can be large or run the other way. Shown is part of a subset that was picked to be rich in actives.
Classes to choose from: active, inactive

See these solved cases before continuing.
compound	discrete_label
O=C(CSC1=Nc2ccccc2C2=NC(CC(=O)NCc3ccco3)C(=O)N12)NCc1ccco1 (centres undefined)	active
O=C(/C=C/c1cc2c(cc1Br)OCO2)NCc1ccc(Cl)cc1	inactive
O=C(Oc1ccccc1)Oc1ccc2c(c1)oc(=O)c1ccccc12	active

Tell me the assay call for `CCc1ccc(Oc2coc3cc(OC(=O)c4cc5ccccc5oc4=O)ccc3c2=O)cc1` please.
inactive

----------
# test_system: Aldehyde dehydrogenase 1A1 (Homo sapiens) (UniProt P00352)
# Sequence (P00352 whole entry, looked up): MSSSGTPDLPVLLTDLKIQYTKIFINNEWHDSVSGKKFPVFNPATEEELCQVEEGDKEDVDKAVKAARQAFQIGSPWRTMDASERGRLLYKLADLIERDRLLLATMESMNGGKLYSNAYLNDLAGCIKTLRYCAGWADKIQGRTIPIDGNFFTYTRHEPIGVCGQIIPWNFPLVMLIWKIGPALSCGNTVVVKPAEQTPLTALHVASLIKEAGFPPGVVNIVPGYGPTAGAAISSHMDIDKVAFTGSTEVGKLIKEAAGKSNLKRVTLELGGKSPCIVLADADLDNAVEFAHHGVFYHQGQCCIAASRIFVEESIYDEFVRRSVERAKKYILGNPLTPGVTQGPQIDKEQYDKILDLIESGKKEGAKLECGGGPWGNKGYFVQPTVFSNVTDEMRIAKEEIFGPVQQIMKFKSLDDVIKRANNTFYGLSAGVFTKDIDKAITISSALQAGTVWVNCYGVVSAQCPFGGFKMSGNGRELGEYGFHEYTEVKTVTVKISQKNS
# assay_explanation: qHTS Assay for Inhibitors of Aldehyde Dehydrogenase 1 (ALDH1A1)
# run_conditions: Purified ALDH1A1, NADH fluorescence, propionaldehyde substrate; series mostly up to 75.3 µM
About 16,000 (7.3%) of roughly 220,000 compounds were called active. Inconclusive results (about 25%) are left out. Calls come from the whole dose curve; as a rule, active = well fitted inhibition curve with a large enough effect (not every such curve was filed as active); inconclusive = small, poorly fitted or top-dose-only effect, or another doubt; inactive = no such curve, though single readings can be large or run the other way. Only a selection was taken, and actives are over-represented in it overall.
# valid calls are active, inactive; nothing else

compound	discrete_label
Cc1ccc(Cc2cnc(NC(=O)/C(C#N)=C/c3ccc(-c4cccc([N+](=O)[O-])c4)o3)s2)cc1	inactive
Cc1ccc(S(=O)(=O)NCCSC(C)(C)C)cc1	active
CCN(CC(=O)NC(=O)NCc1ccccc1)Cc1nc2ccccc2c(=O)[nH]1	inactive
O=C(CCc1ccccc1)NNc1ccc(F)cc1	inactive
O=C(N/N=C/c1ccccn1)c1cccnc1	inactive

Lab log entry: `CN(CC(=O)Nc1ccccc1[N+](=O)[O-])Cc1ccc(Br)cc1` — outcome as called in the assay?
inactive

Tell me the recorded outcome of this test for Cc1cccc(N2CCN(C(c3ccccc3)c3nnnn3CC3CCCO3)CC2)c1C (stereo not drawn) .
inactive

Name the outcome recorded for CC(NC(=S)Nc1ccc(OC(F)F)cc1)c1ccc(F)cc1 (stereo not drawn) in the assay.
inactive

The values you see were collected from PubChem BioAssay AID1030.
